# Test system: NCI/ADR-RES
# experiment_summary: NCI 60 growth inhibition
# Type: cell-based, human
# test_parameters: Homo sapiens, Ovarian Cancer, Table 2
# Method: The above triazole derivatives of melampomagnolide B were evaluated for growth inhibitory properties against an NCI panel of 60 human cancer cell lines derived from nine human cancer cell types, grouped into disease sub-panels that represent leukemia, lung, colon, central nervous system (CNS), melanoma, renal, ovary, breast, and prostate cancer cells. Growth inhibitory (GI50) effects were measured as a function of the variation of optical density as a percentage of control.
Hi! Just check whether GI50 is below 3 µM. Below gives YES, equal or above gives NO.

Consider the worked cases shown below.
Please check: GI50 for C=C1C(=O)O[C@H]2[C@H]1CC/C(Cn1cc(-c3cccc(Cl)c3)nn1)=C\CC[C@@]1(C)O[C@@H]21 [JVM 4-25] , strictly under 3 µM or not?
YES

Please check: GI50 for C=C1C(=O)O[C@H]2[C@H]1CC/C(Cn1cc(CCC)nn1)=C\CC[C@@]1(C)O[C@@H]21 [JVM 4-16] , strictly under 3 µM or not?
NO

Please check: GI50 for C=C1C(=O)O[C@H]2[C@H]1CC/C(Cn1cc(-c3ccccc3)nn1)=C\CC[C@@]1(C)O[C@@H]21 [JVM 3-74] , strictly under 3 µM or not?
NO

Continue with the molecule presented below.
Please check: GI50 for C=C1C(=O)O[C@H]2[C@H]1CC/C(Cn1cc(-c3cc(C(F)(F)F)cc(C(F)(F)F)c3)nn1)=C\CC[C@@]1(C)O[C@@H]21 [JVM 4-29] , strictly under 3 µM or not?
YES

* * *

# System: HL-60(TB)
# experiment_summary: NCI 60 growth inhibition
# Type: cell-based, human
# test_parameters: Homo sapiens; HL-60(TB), Leukemia, Table 2
attribute_measured: GI50 (nM)
Give bare numbers, in nM.

Please look at the items below and tell me GI50 for each one, in order.
1. C=C1C(=O)O[C@H]2[C@H]1CC/C(Cn1cc(-c3ccccc3)nn1)=C\CC[C@@]1(C)O[C@@H]21
2. C=C1C(=O)O[C@H]2[C@H]1CC/C(Cn1cc(-c3ccc(OC)cc3)nn1)=C\CC[C@@]1(C)O[C@@H]21
3. C=C1C(=O)O[C@H]2[C@H]1CC/C(Cn1cc(-c3cc(C(F)(F)F)cc(C(F)(F)F)c3)nn1)=C\CC[C@@]1(C)O[C@@H]21
4. C=C1C(=O)O[C@H]2[C@H]1CC/C(Cn1cc(-c3cccc(Cl)c3)nn1)=C\CC[C@@]1(C)O[C@@H]21
5. C=C1C(=O)O[C@H]2[C@H]1CC/C(Cn1cc(-c3ccc(F)cc3)nn1)=C\CC[C@@]1(C)O[C@@H]21
6. C=C1C(=O)O[C@H]2[C@H]1CC/C(Cn1cc(CCC)nn1)=C\CC[C@@]1(C)O[C@@H]21

1. 1490
2. 1170
3. 190
4. 330
5. 720
6. 3530

* * *

For each entry below, report its GI50 value.
# System: SN12C
# experiment_summary: NCI 60 growth inhibition
# Type: cell-based, human
# test_parameters: Homo sapiens, Renal Cancer, Table 2
Answers are plain numbers, in nM.

These solved cases illustrate the format of a correct answer.
Given the entry C=C1C(=O)O[C@H]2[C@H]1CC/C(Cn1cc(-c3cc(C(F)(F)F)cc(C(F)(F)F)c3)nn1)=C\CC[C@@]1(C)O[C@@H]21 [JVM 4-29] , report its measured GI50.
700

Given the entry C=C1C(=O)O[C@H]2[C@H]1CC/C(Cn1cc(-c3ccc(F)cc3)nn1)=C\CC[C@@]1(C)O[C@@H]21 [JVM 4-26] , report its measured GI50.
1640

Given the entry C=C1C(=O)O[C@H]2[C@H]1CC/C(Cn1cc(-c3cccc(Cl)c3)nn1)=C\CC[C@@]1(C)O[C@@H]21 [JVM 4-25] , report its measured GI50.
1400

Please look at the items below and tell me GI50 for each one, in order.
1. C=C1C(=O)O[C@H]2[C@H]1CC/C(Cn1cc(-c3ccc(OC)cc3)nn1)=C\CC[C@@]1(C)O[C@@H]21 [JVM 4-24]
2. C=C1C(=O)O[C@H]2[C@H]1CC/C(Cn1cc(CCC)nn1)=C\CC[C@@]1(C)O[C@@H]21 [JVM 4-16]
3. C=C1C(=O)O[C@H]2[C@H]1CC/C(Cn1cc(-c3ccccc3)nn1)=C\CC[C@@]1(C)O[C@@H]21 [JVM 3-74]

1: 1960; 2: 12100; 3: 4500

* * *

# System: SNB-19
# experiment_summary: NCI 60 growth inhibition
# Type: cell-based, human
# test_parameters: Homo sapiens; SNB-19, CNS Cancer, Table 2
attribute_measured: log10 GI50 (log10 of the value in µM)
Please be aware that the numbers have been log10-transformed from GI50 in µM.

These solved cases illustrate the format of a correct answer.
Given the entry C=C1C(=O)O[C@H]2[C@H]1CC/C(Cn1cc(-c3ccc(F)cc3)nn1)=C\CC[C@@]1(C)O[C@@H]21 , report its measured log10 GI50.
0.53

Given the entry C=C1C(=O)O[C@H]2[C@H]1CC/C(Cn1cc(-c3ccc(OC)cc3)nn1)=C\CC[C@@]1(C)O[C@@H]21 , report its measured log10 GI50.
0.84

Given the entry C=C1C(=O)O[C@H]2[C@H]1CC/C(Cn1cc(-c3ccccc3)nn1)=C\CC[C@@]1(C)O[C@@H]21 , report its measured log10 GI50.
0.90

Given the entry C=C1C(=O)O[C@H]2[C@H]1CC/C(Cn1cc(CCC)nn1)=C\CC[C@@]1(C)O[C@@H]21 , report its measured log10 GI50.
1.27

Please look at the items below and tell me log10 GI50 for each one, in order.
1. C=C1C(=O)O[C@H]2[C@H]1CC/C(Cn1cc(-c3cc(C(F)(F)F)cc(C(F)(F)F)c3)nn1)=C\CC[C@@]1(C)O[C@@H]21
2. C=C1C(=O)O[C@H]2[C@H]1CC/C(Cn1cc(-c3cccc(Cl)c3)nn1)=C\CC[C@@]1(C)O[C@@H]21

[0.23, 0.38]

* * *

# Tested on: SK-MEL-5
# experiment_summary: NCI 60 growth inhibition
# Format: cell-based, human
# test_parameters: Homo sapiens; SK-MEL-5, Melanoma, Table 2
For each entry below, report its GI50 value.
Numbers only, in nM.

These solved cases illustrate the format of a correct answer.
Given the entry C=C1C(=O)O[C@H]2[C@H]1CC/C(Cn1cc(-c3ccc(F)cc3)nn1)=C\CC[C@@]1(C)O[C@@H]21 [JVM 4-26] , report its measured GI50.
1740

Given the entry C=C1C(=O)O[C@H]2[C@H]1CC/C(Cn1cc(-c3cc(C(F)(F)F)cc(C(F)(F)F)c3)nn1)=C\CC[C@@]1(C)O[C@@H]21 [JVM 4-29] , report its measured GI50.
1470

Given the entry C=C1C(=O)O[C@H]2[C@H]1CC/C(Cn1cc(-c3ccc(OC)cc3)nn1)=C\CC[C@@]1(C)O[C@@H]21 [JVM 4-24] , report its measured GI50.
2100

Given the entry C=C1C(=O)O[C@H]2[C@H]1CC/C(Cn1cc(CCC)nn1)=C\CC[C@@]1(C)O[C@@H]21 [JVM 4-16] , report its measured GI50.
15300

Given the entry C=C1C(=O)O[C@H]2[C@H]1CC/C(Cn1cc(-c3ccccc3)nn1)=C\CC[C@@]1(C)O[C@@H]21 [JVM 3-74] , report its measured GI50.
7320

Okay, next one:
Given the entry C=C1C(=O)O[C@H]2[C@H]1CC/C(Cn1cc(-c3cccc(Cl)c3)nn1)=C\CC[C@@]1(C)O[C@@H]21 [JVM 4-25] , report its measured GI50.
1700

* * *

# System: HCC-2998
# experiment_summary: NCI 60 growth inhibition
# Format: cell-based, human
# test_parameters: Homo sapiens; HCC-2998, Colon Cancer, Table 2
attribute_measured: GI50

These solved cases illustrate the format of a correct answer.
Given the entry C=C1C(=O)O[C@H]2[C@H]1CC/C(Cn1cc(-c3cc(C(F)(F)F)cc(C(F)(F)F)c3)nn1)=C\CC[C@@]1(C)O[C@@H]21 , report its measured GI50.
1.17 µM

Given the entry C=C1C(=O)O[C@H]2[C@H]1CC/C(Cn1cc(-c3ccccc3)nn1)=C\CC[C@@]1(C)O[C@@H]21 , report its measured GI50.
6.16 µM

Given the entry C=C1C(=O)O[C@H]2[C@H]1CC/C(Cn1cc(-c3ccc(F)cc3)nn1)=C\CC[C@@]1(C)O[C@@H]21 , report its measured GI50.
1.74 µM

Given the entry C=C1C(=O)O[C@H]2[C@H]1CC/C(Cn1cc(-c3ccc(OC)cc3)nn1)=C\CC[C@@]1(C)O[C@@H]21 , report its measured GI50.
1.98 µM

Please look at the items below and tell me GI50 for each one, in order.
1. C=C1C(=O)O[C@H]2[C@H]1CC/C(Cn1cc(CCC)nn1)=C\CC[C@@]1(C)O[C@@H]21
2. C=C1C(=O)O[C@H]2[C@H]1CC/C(Cn1cc(-c3cccc(Cl)c3)nn1)=C\CC[C@@]1(C)O[C@@H]21

["15.1 µM", "1.64 µM"]
